# Test system: NALM-6;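 further: growth inhibition of NALM-6 cells, read out with a cell viability assay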
# Procedure details: cells
# Type: functional, cell-based, Homo sapiens
# Recorded conditions: Homo sapiens, NALM-6
# Description: SANGER: Inhibition of human NALM-6 cell growth in a cell viability assay.
Measured property: pIC50
Remember the convention: pIC50 equals -log10 of concentration in molar.

Examples from the recorded data:
* CCN(CC)CCNC(=O)c1c(C)[nH]c(/C=C2\C(=O)Nc3ccc(F)cc32)c1C [SUNITINIB] | 5.54
* COc1cc2ncn(-c3cc(OCc4ccccc4C(F)(F)F)c(C(N)=O)s3)c2cc1OC [GW843682X] | 7.61

# input State pIC50 (NALM-6) of CC(=O)O[C@H]1C(=O)[C@@]2(C)[C@H]([C@H](OC(=O)c3ccccc3)[C@]3(O)C[C@H](OC(=O)[C@H](O)[C@@H](NC(=O)c4ccccc4)c4ccccc4)C(C)=C1C3(C)C)[C@]1(OC(C)=O)CO[C@@H]1C[C@@H]2O [PACLITAXEL] .
# output 7.92

----------
# System: CFPAC-1;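 further: cell viability readout used to gauge suppression of CFPAC-1 cell proliferation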
# Procedure details: cells
# Assay type: functional, cell-based, Homo sapiens
# Recorded conditions: Homo sapiens, CFPAC-1
# Description: SANGER: Inhibition of human CFPAC-1 cell growth in a cell viability assay.
We begin with a simple list: items and their reported IC50.

Examples from the recorded data:
* CC(C)c1ccccc1Cc1cc(C(=O)Nc2ccc(S(=O)(=O)c3ccccc3C(C)(C)C)cc2)c(O)c(O)c1O | 0.522 µM
* CC(C)CCN1c2nc(Nc3cc(F)c(O)c(F)c3)ncc2N(C)C(=O)C1C (stereo not given) | > 5 µM
* CCN(CC)CCCCNc1ncc2cc(-c3cc(OC)cc(OC)c3)c(NC(=O)NC(C)(C)C)nc2n1 | > 2 µM

# input Provide only the value of recorded IC50 for Cn1cnc2c(F)c(Nc3ccc(Br)cc3Cl)c(C(=O)NOCCO)cc21
# output > 4 µM

# input Provide only the value of recorded IC50 for COc1cc2c(Nc3ccc(NC(=O)c4ccccc4)cc3)ncnc2cc1OCCCN1CCOCC1
# output > 4 µM

----------
# Tested on: TGW
# Procedure details: cells
# Assay type: functional, cell-based, Homo sapiens
# Recorded conditions: Homo sapiens, TGW
# Description: SANGER: Inhibition of human TGW cell growth in a cell viability assay.
We begin with a simple list: items and their reported IC50.
The figure you give is taken to be in µM; do not add the unit.

* Nc1ccn([C@@H]2O[C@H](CO)[C@@H](O)C2(F)F)c(=O)n1 [GEMCITABINE] | 0.2

Alright, here's another compound for you.
# input Provide only the value of recorded IC50 for N#Cc1c(O)c2c(-c3ccc(-c4ccccc4O)cc3)csc2[nH]c1=O
# output 0.311

----------
# System: ES4;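 further: growth inhibition of human ES4 cells, read out by a cell viability assay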
# Procedure details: cells
# Format: functional, cell-based, Homo sapiens
# Recorded conditions: es4
# Description: SANGER: Inhibition of human ES4 cell growth in a cell viability assay.
Measured property: IC50 (nM)
The figure you give is taken to be in nM; do not add the unit.

* CISPLATIN | 1600

Alright, here's another sequence for you.
# input State IC50 (ES4) of BLEOMYCIN .
# output 38.3

----------
# System: KNS-42
# Procedure details: cells
# Format: functional, cell-based, Homo sapiens
# Recorded conditions: Homo sapiens, KNS-42
# Description: SANGER: Inhibition of human KNS-42 cell growth in a cell viability assay.
We begin with a simple list: items and their reported IC50.
The figure you give is taken to be in µM; do not add the unit.

Examples from the recorded data:
* N[C@@H](CSC(c1ccccc1)(c1ccccc1)c1ccccc1)C(=O)O [S-TRITYL-L-CYSTEINE] | 2.58
* Nc1ccn([C@@H]2O[C@H](CO)[C@@H](O)C2(F)F)c(=O)n1 [GEMCITABINE] | 0.736
* COc1cc2ncn(-c3cc(OCc4ccccc4C(F)(F)F)c(C(N)=O)s3)c2cc1OC [GW843682X] | 0.0247

Alright, here's another compound for you.
# input State IC50 (KNS-42) of OCCCNc1cc(-c2ccnc(Nc3cccc(Cl)c3)n2)ccn1 .
# output 0.13

All figures here come from ChEMBL document CHEMBL1201861.
